Molecular target: ORL1 receptor (Homo sapiens)
Construct: expressed in transfected cells; host or cells: CHO (recombinant CHO-ORL1 cells), membranes
Sequence (P41146 whole entry): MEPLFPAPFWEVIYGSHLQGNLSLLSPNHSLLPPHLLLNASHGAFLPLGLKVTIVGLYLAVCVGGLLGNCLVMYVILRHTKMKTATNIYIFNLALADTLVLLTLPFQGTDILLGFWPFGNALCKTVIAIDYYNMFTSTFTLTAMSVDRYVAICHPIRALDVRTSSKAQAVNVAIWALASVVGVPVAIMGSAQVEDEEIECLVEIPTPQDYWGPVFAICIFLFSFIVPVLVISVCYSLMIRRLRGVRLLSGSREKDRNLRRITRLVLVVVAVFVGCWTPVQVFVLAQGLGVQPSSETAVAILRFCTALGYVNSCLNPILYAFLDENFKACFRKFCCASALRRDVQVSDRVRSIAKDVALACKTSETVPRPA
Experiment: ORL1 receptor binding assay with 3H-nociceptin/orphanin FQ (WGA-SPA beads)
Conditions: c=1 μM test substance; 0.5 nM 3H-nociceptin/orphanin FQ; membranes of recombinant CHO-ORL1 cells
OBSERVABLE: inhibition at 1 µM (%)
Record the value in %, omitting the unit from your answer.

Cc1c(CNCCN2CCC(c3cccs3)(N(C)C)CC2)c2ccccc2n1C [Example 80]; 97
CN(C)C1(c2cccs2)CCN(C(=O)CC(NC(=O)c2cccc3c2ccn3C)c2ccccc2)CC1 (centres unmarked) [Example 108]; 63
CN(CCN1CCC(c2ccccc2)(N2CCCC2)CC1)Cc1ccc2[nH]ccc2c1 [Example 140]; 17
CN(C)C1(c2ccccc2)CCN(C(=O)CCNC(=O)CCc2cn(C)c3ccccc23)CC1 [Example 117]; 48
CN(C)C1(c2cccs2)CCN(CCNC(=O)c2ccc3ccn(C)c3c2)CC1 [Example 9]; 77
CN(CCCN1CCC(c2ccccc2)(N(C)C)CC1)C(=O)CCc1cn(C)c2ccccc12 [Example 50]; 39
CN(CCCN1CCC(c2cccs2)(N(C)C)CC1)C(=O)Cc1c[nH]c2cc(F)ccc12 [Example 26]; 59

# context switch: different molecule, same inhibition at 1 µM
q: Identify measured inhibition at 1 µM associated with CN(C)C1(c2cccs2)CCN(CCNC(=O)CCc2c[nH]c3ccccc23)CC1 [Example 5]
a: 89

Where do these numbers come from? They come from patent US9206156B2.
